# Method: Binding affinity to Escherichia coli ThrRS by coupled spectrophotometry
I'd be grateful if you could share measured Ki for these entries.

Fill in Ki for record C[C@@H](O)[C@H](N)C(=O)NS(=O)(=O)c1ccc2ccc(-c3ncnc4[nH]ccc34)cc2c1
2.4 nM

Fill in Ki for record Cc1nc(N)c2ccc(-c3cccc(S(=O)(=O)NC(=O)[C@@H](N)[C@@H](C)O)c3)cc2n1
17.2 nM

Fill in Ki for record C[C@@H](O)[C@H](N)C(=O)NS(=O)(=O)c1cccc(-c2ccc3c(N)ncnc3c2)c1
2.9 nM

Fill in Ki for record C[C@@H](O)[C@H](N)C(=O)N(C)S(=O)(=O)c1cccc(-c2ccc3c(c2)CNC3=O)c1
> 50000 nM

Fill in Ki for record CC[C@@H](O)[C@H](N)C(=O)NS(=O)(=O)/C=C/c1cccc(-c2cc(N)ncn2)c1
4.3 nM

Fill in Ki for record C[C@@H](O)[C@H](N)C(=O)NS(=O)(=O)OC[C@@H]1O[C@H](n2cnc3c(N)ncnc32)[C@@H](O)[C@H]1O
13.1 nM

Fill in Ki for record C[C@@H](O)[C@H](N)C(=O)NCc1cccc(-c2ccc3c(N)nc(Cl)nc3c2)c1
329 nM

Fill in Ki for record C[C@@H](O)[C@H](N)CNS(=O)(=O)c1cccc(-c2ccc3c(N)nc(Cl)nc3c2)c1
> 50000 nM

---

# Method: Binding affinity to Burkholderia thailandensis ThrRS by coupled spectrophotometry
I'd be grateful if you could share measured Ki for these entries.
// return numeric value only (unit: nM, not printed)

Fill in Ki for record C[C@@H](O)[C@H](N)C(=O)NS(=O)(=O)c1cccc(-c2ccc3[nH]ncc3c2)c1
164

Fill in Ki for record C[C@@H](O)[C@H](N)C(=O)NCc1cccc(-c2ccc3c(N)nc(Cl)nc3c2)c1
140

Fill in Ki for record C[C@@H](O)[C@H](N)C(=O)NS(=O)(=O)c1ccc(Oc2ccccc2)cc1
193000

Fill in Ki for record C[C@@H](O)[C@H](N)C(=O)NS(=O)(=O)c1cccc(-c2ccc3[nH]nc(Cl)c3c2)c1
77

Fill in Ki for record Cc1nc(N)c2ccc(-c3cccc(S(=O)(=O)NC(=O)[C@@H](N)[C@@H](C)O)c3)cc2n1
12.2

Fill in Ki for record C[C@@H](O)[C@H](N)C(=O)NS(=O)(=O)c1cccc(-c2ccc3c(N)nc(N)nc3c2)c1
2.9

Fill in Ki for record CC(C)[C@@H](O)[C@H](N)C(=O)NS(=O)(=O)/C=C/c1cccc(-c2cc(N)ncn2)c1
588

Fill in Ki for record C[C@@H](O)[C@H](N)C(=O)NS(=O)(=O)c1cccc(-c2ccc3c(N)nc(Cl)nc3c2)c1
0.3

Fill in Ki for record C[C@@H](O)[C@H](N)C(=O)NS(=O)(=O)c1cccc(-c2ccc3c(N)ncnc3c2)c1
0.9

Fill in Ki for record C[C@@H](O)[C@H](N)C(=O)NS(=O)(=O)/C=C/c1cccc(-c2cc(N)ncn2)c1
1.1

Fill in Ki for record C[C@@H](O)[C@H](N)C(=O)NS(=O)(=O)c1cccc(-c2ccc3c(N)nc(Cl)cc3c2)c1
23

Fill in Ki for record C[C@@H](O)[C@H](N)C(=O)NNc1cccc(-c2ccc3c(N)nc(Cl)nc3c2)c1
34

Fill in Ki for record C[C@@H](O)[C@H](N)C(=O)NS(=O)(=O)c1ccc2ccc(-c3cc(N)ncn3)cc2c1
0.7

Fill in Ki for record C[C@@H](O)[C@H](N)C(=O)NS(=O)(=O)c1ccc2ccc(-c3ncnc4[nH]ccc34)cc2c1
0.6

Fill in Ki for record CC[C@@H](O)[C@H](N)C(=O)NS(=O)(=O)/C=C/c1cccc(-c2cc(N)ncn2)c1
14.1

Fill in Ki for record C[C@@H](O)[C@H](N)C(=O)NS(=O)(=O)OC[C@@H]1O[C@H](n2cnc3c(N)ncnc32)[C@@H](O)[C@H]1O
2.8

Fill in Ki for record C[C@@H](O)[C@H](N)C(=O)NS(=O)(=O)c1cccc(-c2ccc3c(c2)CNC3=O)c1
7.4

Fill in Ki for record Cc1n[nH]c2ccc(-c3cccc(S(=O)(=O)NC(=O)[C@@H](N)[C@@H](C)O)c3)cc12
143

Fill in Ki for record C[C@@H](O)[C@H](N)C(=O)NS(=O)(=O)c1cccc(-c2ccc3c(N)nccc3c2)c1
89

Fill in Ki for record C[C@@H](O)[C@H](N)C(=O)NS(=O)(=O)N1CCc2ccc(-c3ncnc4[nH]ccc34)cc2C1
4
